assay: Relative affinity for rat androgen receptor(AR) and human Sex steroid binding protein (SBP)
Please use fulfilled whenever RBA ratio is not below 6, and not fulfilled whenever it is.

# molecule, class-name
measured = [
    ("C[C@]12C=CC3=C4CCC(=O)C=C4CCC3C1CC[C@@]2(O)CF (stereo partly specified)", "fulfilled"),
    ("C[C@@H]1CC2=CC(=O)CC[C@@H]2C2CC[C@@]3(C)C(C[C@H](F)[C@]3(C)O)C21 (stereo partly specified)", "fulfilled"),
    ("C[C@@H]1CC2=CC(=O)CC[C@@H]2C2CC[C@@]3(C)C(CC[C@]3(C)O)C21 (stereo partly specified)", "fulfilled"),
    ("C[C@@H]1CC2=CC(=O)CC[C@@H]2C2CC[C@@]3(C)C(C[C@@H](F)[C@]3(C)O)C21 (stereo partly specified)", "fulfilled"),
    ("C[C@]12CC[C@H]3[C@@H](CCC4CC(=O)CC[C@@]43C)[C@@H]1C[C@H](F)[C@@H]2O (stereo partly specified)", "not fulfilled"),
    ("C[C@@H]1CC2=CC(=O)CC[C@@H]2C2CC[C@@]3(C)C(C[C@H](F)[C@@H]3O)C21 (stereo partly specified)", "fulfilled"),
    ("C[C@]12CC[C@H]3[C@@H](CCC4CC(=O)CC[C@@]43C)[C@@H]1C[C@@H](F)[C@@H]2O (stereo partly specified)", "not fulfilled"),
    ("C[C@]1(O)CC[C@H]2[C@@H]3CCC4=CC(=O)CCC4=C3C=C[C@@]21C", "fulfilled"),
    ("C[C@@H]1CC2=CC(=O)CC[C@@H]2C2CC[C@@]3(C)C(CC[C@@H]3O)C21 (stereo partly specified)", "not fulfilled"),
    ("C[C@@H]1CC2=CC(=O)CC[C@@H]2C2CC[C@@]3(C)C(CC[C@@]3(O)CF)C21 (stereo partly specified)", "fulfilled"),
    ("C[C@@H]1CC2=CC(=O)CC[C@@H]2C2CC[C@@]3(C)C(C[C@@H](F)[C@@H]3O)C21 (stereo partly specified)", "not fulfilled"),
]
